Source listed as patent US12492195B2.

I'd appreciate it if you could supply IC50 values for the items below.
# TESTED TARGET: TRPA1 (Mus musculus, UniProt Q8BLA8)
# Sequence (Q8BLA8 whole entry): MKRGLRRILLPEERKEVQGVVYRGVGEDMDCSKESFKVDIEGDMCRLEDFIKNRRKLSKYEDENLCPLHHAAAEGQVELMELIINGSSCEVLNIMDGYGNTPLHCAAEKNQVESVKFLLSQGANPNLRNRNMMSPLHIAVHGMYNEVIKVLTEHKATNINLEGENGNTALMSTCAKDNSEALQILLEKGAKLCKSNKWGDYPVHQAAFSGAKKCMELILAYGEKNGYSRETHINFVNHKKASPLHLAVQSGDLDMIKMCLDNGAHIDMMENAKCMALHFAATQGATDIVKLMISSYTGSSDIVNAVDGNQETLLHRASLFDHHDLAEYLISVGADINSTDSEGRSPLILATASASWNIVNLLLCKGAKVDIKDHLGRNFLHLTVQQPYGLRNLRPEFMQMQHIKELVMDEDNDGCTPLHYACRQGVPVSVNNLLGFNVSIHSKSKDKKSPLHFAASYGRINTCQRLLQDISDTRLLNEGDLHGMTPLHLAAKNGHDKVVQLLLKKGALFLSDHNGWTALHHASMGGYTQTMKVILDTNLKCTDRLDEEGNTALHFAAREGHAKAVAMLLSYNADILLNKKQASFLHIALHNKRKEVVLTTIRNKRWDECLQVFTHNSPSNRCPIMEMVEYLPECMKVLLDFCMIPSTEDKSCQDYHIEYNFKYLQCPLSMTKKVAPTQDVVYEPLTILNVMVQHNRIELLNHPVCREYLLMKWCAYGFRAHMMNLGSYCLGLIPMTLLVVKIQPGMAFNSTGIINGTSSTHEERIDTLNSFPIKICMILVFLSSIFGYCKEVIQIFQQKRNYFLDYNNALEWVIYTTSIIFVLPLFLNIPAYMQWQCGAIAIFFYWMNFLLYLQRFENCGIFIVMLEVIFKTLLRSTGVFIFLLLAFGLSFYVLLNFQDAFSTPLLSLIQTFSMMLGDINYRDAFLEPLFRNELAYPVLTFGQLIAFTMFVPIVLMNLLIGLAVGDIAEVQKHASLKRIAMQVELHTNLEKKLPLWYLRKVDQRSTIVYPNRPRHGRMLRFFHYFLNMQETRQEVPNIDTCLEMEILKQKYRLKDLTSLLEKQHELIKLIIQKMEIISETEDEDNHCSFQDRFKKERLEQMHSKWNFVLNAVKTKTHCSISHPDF
# TEST DETAILS: IonWorks Barracuda (IWB) automated patch clamp detection of TRPA1 inhibitory activity
# ASSAY CONDITIONS: HEK293 cells stably expressing TRPA1, AITC-induced current

[Q] Would you kindly share the measured IC50 for "CNCC[C@H](Oc1cccc2c1CCC2)c1ccccc1" ?
[A] 20 to 50 µM

[Q] And CNCC[C@H](Oc1cccc2ccccc12)c1cccs1 [Duloxetine (S configuration), Duloxetine, reference compound] ?
[A] 10 to 20 µM

---

# TEST DETAILS: Solubility of free compound Ic-1 in different solvents
# Type: physicochemical
# ASSAY CONDITIONS: organic solvent or mixture, thermodynamic from solid; Dimethyl sulfoxide, room temperature
VALUE KIND: solubility

[Q] Would you kindly share the measured solubility for "CNCC[C@H](Oc1cccc2ccoc12)c1cccs1" ?
[A] > 38 mg/mL
